Target: UniProt Q14164
Sequence (Q14164 whole entry): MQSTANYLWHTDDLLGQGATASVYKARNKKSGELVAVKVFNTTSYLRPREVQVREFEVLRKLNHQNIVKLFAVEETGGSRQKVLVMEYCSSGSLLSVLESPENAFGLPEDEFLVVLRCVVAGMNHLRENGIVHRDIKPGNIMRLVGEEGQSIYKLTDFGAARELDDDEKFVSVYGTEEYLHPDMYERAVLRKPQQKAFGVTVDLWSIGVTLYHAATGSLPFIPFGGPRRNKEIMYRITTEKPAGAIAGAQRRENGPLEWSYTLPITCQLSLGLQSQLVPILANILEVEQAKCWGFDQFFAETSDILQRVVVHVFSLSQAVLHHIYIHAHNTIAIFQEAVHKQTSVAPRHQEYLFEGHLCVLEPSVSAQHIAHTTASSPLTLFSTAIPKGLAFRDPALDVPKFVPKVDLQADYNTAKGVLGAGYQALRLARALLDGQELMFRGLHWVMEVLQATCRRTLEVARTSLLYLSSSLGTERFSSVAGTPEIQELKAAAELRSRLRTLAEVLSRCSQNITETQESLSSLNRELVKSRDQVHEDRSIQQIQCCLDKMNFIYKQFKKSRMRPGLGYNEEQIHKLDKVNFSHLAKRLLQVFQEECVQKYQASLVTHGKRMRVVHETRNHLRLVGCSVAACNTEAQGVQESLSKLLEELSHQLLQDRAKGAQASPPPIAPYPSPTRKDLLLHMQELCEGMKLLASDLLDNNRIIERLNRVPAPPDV
Assay: IKKε TR-FRET enzymatic assay
Format: biochemical
Conditions: read-out: IKKe IC50
Exercise: for every item that follows, state its recorded IC50.
State the answer as a number, implicitly in nM.

Task: Requested read-out: IC50. Entry: N#Cc1cc(-c2ncnc(Nc3ccc(N4CCN(C5COC5)CC4)cc3)n2)ccc1OC1CN(C(=O)CO)CC1(F)F (stereo not shown)
Result: 14

Task: Requested read-out: IC50. Entry: N#Cc1cc(-c2ncnc(Nc3ccc(N4CCOCC4)cc3)n2)ccc1NC(=O)[C@@H]1CCCN1
Result: 305

Task: Requested read-out: IC50. Entry: C[C@H](O)C(=O)N1CCC[C@@H](Oc2ccc(-c3ncnc(Nc4ccc(N5CCN(C6COC6)CC5)cc4)n3)cc2C#N)C1
Result: 111

###

Biological target: TBK1 (Homo sapiens (Human))
Assay: TBK1 TR-FRET enzymatic assay
Exercise: for every item that follows, state its recorded IC50.
State the answer as a number, implicitly in nM.

Task: Given the entry C[C@H]1CN(C2COC2)CCN1c1ccc(Nc2ncnc(-c3ccc(O[C@H]4CCN(C(=O)CCO)CC4(F)F)c(C#N)c3)n2)cc1 [Example 254] , what IC50 was observed with TBK1 (Homo sapiens (Human))?
Result: 3

Task: Given the entry C[C@H](O)C(=O)N1CC[C@H](COc2cc(C#N)cc(-c3ncnc(Nc4ccc(N5CCN(C6COC6)CC5)cc4)n3)c2)C1 [Example 590] , what IC50 was observed with TBK1 (Homo sapiens (Human))?
Result: 528

Task: Given the entry N#CCC(=O)N1CC[C@H](Oc2ccc(-c3ncnc(Nc4ccc(N5CCO[C@@H](CO)C5)cc4)n3)cc2C#N)[C@H](F)C1 [Example 467] , what IC50 was observed with TBK1 (Homo sapiens (Human))?
Result: 4

Task: Given the entry Cc1cc(Nc2ncnc(-c3ccc(O[C@@H]4CCC(=O)NC4)c(C#N)c3)n2)ccc1N1CCN(C2COC2)CC1 [Example 532] , what IC50 was observed with TBK1 (Homo sapiens (Human))?
Result: 3

Task: Given the entry N#Cc1cc(-c2ncnc(Nc3ccc(N4CCN(C5COC5)CC4)cc3)n2)ccc1OCC1(F)COC1 [Example 280] , what IC50 was observed with TBK1 (Homo sapiens (Human))?
Result: 4

###

Biological target: UniProt:Q9UHD2
Test: TBK1 TR-FRET enzymatic assay
measured_parameter: pIC50
pIC50 is a log-scale quantity: -log10 of the concentration expressed in molar.

Task: Requested read-out: pIC50. Entry: C[C@@H](O)C(=O)N1CC[C@@H](Oc2ccc(-c3ncnc(Nc4ccc(N5CCN(C6COC6)CC5)cc4)n3)cc2C#N)C1 [Example 91]
Result: 6.84

Task: Requested read-out: pIC50. Entry: C[C@H](O)C(=O)N1CC[C@@H](Oc2ccc(-c3ncnc(Nc4ccc(N5CCN(C6COC6)[C@H](C)C5)cc4)n3)cc2C#N)C(F)(F)C1 [Example 245]
Result: 7.77

Task: Requested read-out: pIC50. Entry: N#Cc1cc(-c2ncnc(Nc3ccc(N4CCN(C5COC5)CC4)cc3)n2)cc(F)c1OC1CCS(=O)(=O)CC1 [Example 271]
Result: 7.74

###

Biological target: TBK1 (Homo sapiens (Human), UniProt Q9UHD2)
Sequence (Q9UHD2 whole entry): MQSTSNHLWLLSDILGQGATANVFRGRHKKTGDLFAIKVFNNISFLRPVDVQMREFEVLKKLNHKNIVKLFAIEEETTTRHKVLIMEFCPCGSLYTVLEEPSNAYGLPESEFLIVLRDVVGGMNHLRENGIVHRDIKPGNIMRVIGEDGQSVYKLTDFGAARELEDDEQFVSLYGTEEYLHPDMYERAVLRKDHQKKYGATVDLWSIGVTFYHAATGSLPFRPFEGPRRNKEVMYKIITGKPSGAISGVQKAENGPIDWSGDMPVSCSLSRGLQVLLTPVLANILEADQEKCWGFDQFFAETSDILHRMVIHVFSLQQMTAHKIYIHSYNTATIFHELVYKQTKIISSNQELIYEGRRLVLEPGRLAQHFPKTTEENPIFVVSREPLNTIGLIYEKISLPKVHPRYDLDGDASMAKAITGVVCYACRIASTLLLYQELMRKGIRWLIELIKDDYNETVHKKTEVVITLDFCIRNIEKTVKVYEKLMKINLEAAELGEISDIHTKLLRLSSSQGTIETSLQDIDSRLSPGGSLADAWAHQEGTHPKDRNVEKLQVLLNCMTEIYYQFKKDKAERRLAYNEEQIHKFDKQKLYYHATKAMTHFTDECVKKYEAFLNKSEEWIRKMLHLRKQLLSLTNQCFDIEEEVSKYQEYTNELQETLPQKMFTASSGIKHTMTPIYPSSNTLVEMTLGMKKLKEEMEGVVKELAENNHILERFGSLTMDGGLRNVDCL
Assay: TBK1 TR-FRET enzymatic assay;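 also: phosphorylation of a biotinylated Ser/Thr peptide by purified full-length recombinant TBK1, read by TR-FRET after 240 min at 25 °C, IC50 is the geometric mean of at least four runs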
Exercise: for every item that follows, state its recorded IC50.
State the answer as a number, implicitly in nM.

Task: Requested read-out: IC50. Entry: N#Cc1cc(-c2ncnc(Nc3ccc(N4CCN(C5COC5)CC4)cc3)n2)ccc1O[C@H]1CCN(C(=O)c2ncc[nH]2)C[C@H]1F
Result: 3

Task: Requested read-out: IC50. Entry: N#Cc1cc(-c2ncnc(Nc3ccc(N4CCOCC4)cc3)n2)ccc1O[C@H]1CCN(C(=O)[C@@H](O)CO)C[C@H]1F
Result: 4

Task: Requested read-out: IC50. Entry: N#Cc1cc(-c2ncnc(Nc3ccc(N4CCN(C5COC5)CC4)cc3)n2)ccc1OCCN1CCNC(=O)C1
Result: 662

Measured values drawn from patent US10040781B2 for this set.
